- Test system: CD37-positive human chronic lymphocytic leukemia cell line JVM-13
- PROTOCOL_TEXT: Cell growth inhibition by combination with BTK inhibitors (Celltiter-Glo 2.0)
- Assay type: cell-based
- CONDITION_SET: JVM13, 144 h, read-out: D2 (50% cell growth inhibition concentration, BTK inhibitor alone)
ASSAY_METRIC: pIC50
pIC50 is a log-scale quantity: -log10 of the concentration expressed in molar.

Prompt: Record request: pIC50 value, item C=CC(=O)N1CCC[C@@H](n2nc(-c3ccc(Oc4ccccc4)cc3)c3c(N)ncnc32)C1
Response: 6.24
